# Target or test system: BTK (phospho-BTK) in human whole blood (Homo sapiens)
# Sequence (Q06187 whole entry): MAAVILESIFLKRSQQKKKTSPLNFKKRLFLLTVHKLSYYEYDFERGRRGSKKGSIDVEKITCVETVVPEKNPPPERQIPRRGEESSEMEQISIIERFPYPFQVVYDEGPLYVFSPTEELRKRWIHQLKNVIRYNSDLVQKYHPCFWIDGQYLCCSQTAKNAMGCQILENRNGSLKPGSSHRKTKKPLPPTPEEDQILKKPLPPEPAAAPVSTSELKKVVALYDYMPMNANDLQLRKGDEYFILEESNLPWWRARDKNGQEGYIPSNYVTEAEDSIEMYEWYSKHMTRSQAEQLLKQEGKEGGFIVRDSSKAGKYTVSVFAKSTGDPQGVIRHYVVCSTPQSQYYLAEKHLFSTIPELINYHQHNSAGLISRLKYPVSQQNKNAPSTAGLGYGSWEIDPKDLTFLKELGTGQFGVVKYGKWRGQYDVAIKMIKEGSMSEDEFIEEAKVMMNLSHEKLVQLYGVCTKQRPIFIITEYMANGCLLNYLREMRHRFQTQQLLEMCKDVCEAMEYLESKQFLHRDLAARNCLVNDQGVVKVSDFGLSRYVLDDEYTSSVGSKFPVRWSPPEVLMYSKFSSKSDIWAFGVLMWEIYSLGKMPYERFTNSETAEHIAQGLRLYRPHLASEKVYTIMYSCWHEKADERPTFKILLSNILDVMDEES
# Experiment summary: In vitro PD assay in human whole blood (pBTK assay)
pIC50: −log10 of the molar value.
Parameter measured: pIC50

Field: example entries. Status: answers known.
Cn1cc(Nc2nccc(-c3ccc4c(c3)CCCCC4NC(=O)c3cnn(C(C)(C)C)c3)n2)cn1 (stereo not drawn) : > 6.30
Cn1cc(Nc2nccc(-c3ccc4c(c3)NCCC4NC(=O)c3cnc(C(C)(C)C)s3)n2)cn1 (stereo not drawn) : 5.00 to 5.82
CC(C)(C)C1CCN(C(=O)NCc2ccc(-c3ccnc(Nc4cnn5c4CCC5)n3)cc2CCO)C1 (stereo not drawn) : > 6.30
COCCn1cc(Nc2nccc(-c3ccc4c(c3)CCCC[C@H]4NC(=O)N3CC(OC(C)C)C3)n2)cn1 : > 6.30
Cc1cc(-c2cc(Nc3cc4n(n3)CCCN(C)C4)ncn2)ccc1CNC(=O)c1cnn(C(C)(C)C)c1 : > 6.30

Proceed to the following item.
// query pIC50 value for entry Cc1cc(-c2ccnc(Nc3cnn(C4CN(C)C4)c3)n2)ccc1CNC(=O)c1cnc(C(C)(C)C)s1
> 6.30
